# Tested on: BJeLR fibroblast viability, Alamar Blue fluorescence, 48 h
# procedure.text: BJeLR fibroblast growth inhibition, viability readout – cell-based, alamar blue fluorescence, 48 h, cherrypicked samples, dose response (AID 2610);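 further: BJ fibroblasts with hTERT plus SV40 large and small T and HRAS V12; EC50 for loss of viable cells so potency reflects cytotoxic compounds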
Inconclusive results are not listed. Calls of active or inactive are those of the source.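 How the source made its calls: active means EC50 no more than tenfold above the top concentration tested, with valid fit and all samples agreeing; inconclusive means flat fit at 30 to 70% inhibition, poor fit, or split samples; inactive means EC50 beyond tenfold the top concentration tested.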
The reply should name one outcome from TRUE = active, FALSE = inactive

Worked set:
| compound | class.label |
| --- | --- |
| C/C(=N\NC(=O)c1ccccc1F)c1ccccn1 | TRUE |
| CCOc1ccc(C2=Nn3c(nnc3-c3ccccc3OC)SC2)cc1 | TRUE |
| O=C(NC(Nc1nc2ccc([N+](=O)[O-])cc2s1)(C(F)(F)F)C(F)(F)F)c1ccccc1Cl | TRUE |
| FC(F)(F)c1nnc2c(Sc3ccc(Cl)cc3)nc3ccccc3n12 | TRUE |
| CCN(CC)CCN1C(=O)/C(=C\c2ccc(Cl)c([N+](=O)[O-])c2)SC1=Nc1ccc(OC)cc1 | TRUE |
| Cc1ccc(-c2nn(CC(=O)NCc3cc(-c4nn(C)c(=O)c5ccccc45)ccc3C)c(=O)c3ccccc23)cc1 | FALSE |

Just curious, what result did CC1CN(S(=O)(=O)c2ccc(C(=O)NCCCn3ccnc3)cc2)CC(C)O1 (stereo unspecified) get here?
TRUE

Just curious, what result did "CCc1c(C)c(C#N)c2nc3ccccc3n2c1Cl" get here?
TRUE

Just curious, what result did "CCc1ccc(/C=C2/SC(=S)N(CCC(=O)Nc3cccnc3)C2=O)cc1" get here?
TRUE

Just curious, what result did "O=C(Nc1nc2ccccc2[nH]1)c1ccccc1F" get here?
FALSE

Just curious, what result did "COc1ccc2c(C)nc(Nc3nc(-c4ccccc4)cc(=O)[nH]3)nc2c1" get here?
TRUE

Just curious, what result did "COc1ccc(C(=O)c2cc([N+](=O)[O-])ccc2N2CCOCC2)cc1" get here?
TRUE

Just curious, what result did COc1ccc(C(C(=O)NC2CCCCC2)N(C(=O)CCl)c2ccc(C)cc2)cc1 (stereo unspecified) get here?
TRUE

Just curious, what result did "COc1cc(SC)ccc1C(=O)Nc1nc2ccccc2[nH]1" get here?
FALSE

###

# System: BJeLR fibroblast viability, Alamar Blue fluorescence, 48 h
# procedure.text: BJeLR fibroblast growth inhibition, viability readout – cell-based, alamar blue fluorescence, 48 h, cherrypicked samples, dose response (AID 2610);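 further: BJ fibroblasts with hTERT plus SV40 large and small T and HRAS V12; EC50 for loss of viable cells so potency reflects cytotoxic compounds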
Results filed as inconclusive are left out. Calls of active or inactive are those of the source.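 Rule for the calls: active = EC50 no more than tenfold above the top concentration tested, with valid fit and all samples agreeing; inconclusive = flat fit at 30 to 70% inhibition, poor fit, or split samples; inactive = EC50 beyond tenfold the top concentration tested.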
The reply should name one outcome from active, inactive

| compound | class.label |
| --- | --- |
| C=C1C(=O)O[C@@H]2C[C@@H](C)[C@H]3C=CC(=O)[C@]3(O)C[C@@H]12 | active |
| Cc1cccc(C)c1NS(=O)(=O)c1ccc(-c2cnc(C3CC3)o2)cc1 | active |
| O=C(CCCCCCCCCCC(=O)NCc1cccnc1)NCc1cccnc1 | inactive |
| O=C1N(c2ccccc2)C[C@@H]2C[C@@H](c3cc4ccccc4o3)N3CCC[C@@]123 | active |
| Cc1cccc(NC2=NC(C)(C)N=C(N)N2)c1 | inactive |
| COc1cccc(C(=O)Nc2ccc(N3CCCC3)cc2)c1 | active |
| COc1cccc2c1C(=O)c1c(O)c3c(c(O)c1C2=O)C[C@@](O)(C(=O)CO)C[C@@H]3O[C@H]1C[C@H](N)[C@@H](O)[C@H](C)O1 | active |
| COC(=O)c1cccc(Nc2c3c(nc4ccccc24)CCC3)c1 | active |

Now, please, on to the next compound.
Just curious, what result did Cc1ccc(N(C(=O)CCl)C(C(=O)NC2CCCCC2)c2cccnc2)cc1C (stereo not drawn) get here?
active
